- TARGET_UNDER_TEST: MOR (Mus musculus, UniProt P42866)
- Sequence (P42866 whole entry): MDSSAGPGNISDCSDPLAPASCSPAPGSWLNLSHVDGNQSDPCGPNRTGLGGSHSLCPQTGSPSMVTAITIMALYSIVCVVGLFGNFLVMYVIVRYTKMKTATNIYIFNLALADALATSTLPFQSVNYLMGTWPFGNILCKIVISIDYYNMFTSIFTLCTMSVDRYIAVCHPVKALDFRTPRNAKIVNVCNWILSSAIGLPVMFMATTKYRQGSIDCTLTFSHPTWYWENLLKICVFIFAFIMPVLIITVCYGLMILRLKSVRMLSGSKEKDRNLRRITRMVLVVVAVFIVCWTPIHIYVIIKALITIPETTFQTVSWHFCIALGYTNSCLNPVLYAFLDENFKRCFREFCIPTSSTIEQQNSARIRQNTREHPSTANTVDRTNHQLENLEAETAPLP
- TEST_DESCRIPTION: MOR [35S]-GTPγS functional assay
pEC50: −log10 of the molar value.
VALUE_KIND: pEC50

• O=C(N[C@@H]1CC[C@@]2(O)[C@H]3Cc4ccc(O)c5c4[C@@]2(CCN3CC2CC2)[C@H]1O5)c1cccc2c(C3CCCC3)c[nH]c12 = 8.64
• O=C(N[C@H]1CC[C@@]2(O)[C@H]3Cc4ccc(O)c5c4[C@@]2(CCN3CC2CC2)[C@H]1O5)c1cccc2cc(Br)[nH]c12 = 8.63

* * *

Recorded pKi for the following compounds
- TARGET_UNDER_TEST: DOR (Mus musculus, UniProt P32300)
- Sequence (P32300 whole entry): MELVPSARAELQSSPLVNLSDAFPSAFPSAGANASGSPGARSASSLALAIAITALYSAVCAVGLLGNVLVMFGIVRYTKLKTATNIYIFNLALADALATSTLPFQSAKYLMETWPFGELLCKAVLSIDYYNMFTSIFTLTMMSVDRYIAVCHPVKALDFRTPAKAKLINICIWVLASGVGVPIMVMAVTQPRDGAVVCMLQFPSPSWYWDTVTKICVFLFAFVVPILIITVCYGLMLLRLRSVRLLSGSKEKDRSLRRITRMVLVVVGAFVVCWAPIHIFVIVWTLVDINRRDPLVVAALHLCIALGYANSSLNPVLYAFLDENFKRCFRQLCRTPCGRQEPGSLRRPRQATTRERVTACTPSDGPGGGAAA
pKi: −log10 of the molar value.
VALUE_KIND: pKi

- N#Cc1c[nH]c2c(C(=O)N[C@@H]3CC[C@@]4(O)[C@H]5Cc6ccc(O)c7c6[C@@]4(CCN5CC4CC4)[C@H]3O7)cccc12 [Compound 8]: 7.60
- O=C(N[C@@H]1CC[C@@]2(O)[C@H]3Cc4ccc(O)c5c4[C@@]2(CCN3CC2CC2)[C@H]1O5)c1cccc2c(-c3ccccc3)c[nH]c12 [Compound 17]: 7.31
- O=C(N[C@@H]1CC[C@@]2(O)[C@H]3Cc4ccc(O)c5c4[C@@]2(CCN3CC2CC2)[C@H]1O5)c1cccc2c(C3CCCC3)c[nH]c12 [Compound 15]: 8.01
- CC(=O)Nc1c[nH]c2c(C(=O)N[C@@H]3CC[C@@]4(O)[C@H]5Cc6ccc(O)c7c6[C@@]4(CCN5CC4CC4)[C@H]3O7)cccc12 [Compound 12]: 7.51
- Cc1c[nH]c2c(C(=O)N[C@@H]3CC[C@@]4(O)[C@H]5Cc6ccc(O)c7c6[C@@]4(CCN5CC4CC4)[C@H]3O7)cccc12 [Compound 13]: 7.55
- O=C(N[C@H]1CC[C@@]2(O)[C@H]3Cc4ccc(O)c5c4[C@@]2(CCN3CC2CC2)[C@H]1O5)c1cccc2c(C3CCCC3)c[nH]c12 [Compound 32]: 7.55
- O=C(N[C@@H]1CC[C@@]2(O)[C@H]3Cc4ccc(O)c5c4[C@@]2(CCN3CC2CC2)[C@H]1O5)c1cccc2cc(Br)[nH]c12 [Compound 1]: 8.52
- O=C(N[C@@H]1CC[C@@]2(O)[C@H]3Cc4ccc(O)c5c4[C@@]2(CCN3CC2CC2)[C@H]1O5)c1cccc2c(C3CCCCC3)c[nH]c12 [Compound 16]: 7.19
- O=C(N[C@@H]1CC[C@@]2(O)[C@H]3Cc4ccc(O)c5c4[C@@]2(CCN3CC2CC2)[C@H]1O5)c1cccc2c(Br)c[nH]c12 [Compound 6]: 7.94
- O=C(N[C@H]1CC[C@@]2(O)[C@H]3Cc4ccc(O)c5c4[C@@]2(CCN3CC2CC2)[C@H]1O5)c1cccc2c(Cl)c[nH]c12 [Compound 24]: 7.43
- O=C(N[C@H]1CC[C@@]2(O)[C@H]3Cc4ccc(O)c5c4[C@@]2(CCN3CC2CC2)[C@H]1O5)c1cccc2c(C3CCCCC3)c[nH]c12 [Compound 33]: 7.73

* * *

- TARGET_UNDER_TEST: MOR (Mus musculus, UniProt P42866)
- TEST_DESCRIPTION: Radioligand competition binding assay, MOR
- CONDITIONS_USED: ratio of Ki values DOR/MOR
Sorting guide: entries reporting Selectivity δ/μ beneath 30 go in the YES pile, the rest go in the NO pile.

- CC(=O)c1c[nH]c2c(C(=O)N[C@@H]3CC[C@@]4(O)[C@H]5Cc6ccc(O)c7c6[C@@]4(CCN5CC4CC4)[C@H]3O7)cccc12 [Compound 11]: YES
- O=C(N[C@H]1CC[C@@]2(O)[C@H]3Cc4ccc(O)c5c4[C@@]2(CCN3CC2CC2)[C@H]1O5)c1cccc2c([N+](=O)[O-])c[nH]c12 [Compound 26]: YES
- Cc1cc2cccc(C(=O)N[C@H]3CC[C@@]4(O)[C@H]5Cc6ccc(O)c7c6[C@@]4(CCN5CC4CC4)[C@H]3O7)c2[nH]1.Cl [Compound 21]: YES
- O=C(N[C@H]1CC[C@@]2(O)[C@H]3Cc4ccc(O)c5c4[C@@]2(CCN3CC2CC2)[C@H]1O5)c1cccc2cc(-c3ccccc3)[nH]c12 [Compound 22]: YES
- Cl.O=Cc1c[nH]c2c(C(=O)N[C@@H]3CC[C@@]4(O)[C@H]5Cc6ccc(O)c7c6[C@@]4(CCN5CC4CC4)[C@H]3O7)cccc12 [Compound 10]: NO
- N#Cc1cc2cccc(C(=O)N[C@H]3CC[C@@]4(O)[C@H]5Cc6ccc(O)c7c6[C@@]4(CCN5CC4CC4)[C@H]3O7)c2[nH]1 [Compound 20]: YES
- Cc1c[nH]c2c(C(=O)N[C@@H]3CC[C@@]4(O)[C@H]5Cc6ccc(O)c7c6[C@@]4(CCN5CC4CC4)[C@H]3O7)cccc12 [Compound 13]: NO
